Listed below: pKd values for each entry.
target.or.system: T1, human BCMA on NCI-H929, OPM2 and Raji cells (human, UniProt Q02223 1-184)
T1 construct: endogenous BCMA of human cell lines; also called TNFRSF17; CD269
T1 chain: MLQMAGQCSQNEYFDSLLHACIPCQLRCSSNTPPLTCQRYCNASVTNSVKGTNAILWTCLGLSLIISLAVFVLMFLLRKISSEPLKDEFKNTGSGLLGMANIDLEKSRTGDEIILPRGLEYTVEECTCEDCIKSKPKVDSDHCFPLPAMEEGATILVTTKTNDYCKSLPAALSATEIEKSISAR
procedure.summary: flow cytometry, NCI-H929 cells
Just the number, please; pKd means minus log10 of the concentration in mol/L.

Past entries and their recorded results:
>  <binder>
AB217 (antibody, human IgG1, kappa, V domains shown, IgG1 kappa) VH: QVQLVQSGAEVKKPGSSVKVSCKASGGTFTNYWIHWVRQAPGQGLEWMGATYRSHSDTYYAQKYKSRVTITADKSTSTAYMELSSLRSEDTAVYYCARGAVYHGYDVIDNWGQGTLVTVSS VL: DIQMTQSPSSLSASVGDRVTITCRASQSISSYINWYQQKPGKAPKLLIYATSNLQSGVPSRFSGSGSGTDFTLTISSLQPEDFATYYCQQYRRIPWTFGQGTKLEIKR

>  <pKd>
8.47

$$$$
>  <binder>
AB215 (antibody, human IgG1, kappa, V domains shown, IgG1 kappa) VH: QVQLVQSGAEVKKPGSSVKVSCKASGGTFTNYWIHWVRQAPGQGLEWMGGTYRSHSTTYYNQKFKSRVTITADKSTSTAYMELSSLRSEDTAVYYCARGAVYHGYDVIDNWGQGTLVTVSS VL: DIQMTQSPSSLSASVGDRVTITCRASQSISSYLNWYQQKPGKAPKLLIYATSNLQIGVPSRFSGSGSGTDFTLTISSLQPEDFATYYCQQYRRIPWTFGQGTKLEIKR

>  <pKd>
8.09

$$$$

# get_value(readout='pKd', item= AB212 (antibody, human IgG1, kappa, V domains shown, IgG1 kappa) VH: QVQLVQSGAEVKKPGSSVKVSCKASGGTFSNYWIHWVRQAPGQGLEWMGGTYRSHSDTNYNQKFKSRVTITADKSTSTAYMELSSLRSEDTAVYYCARGAIYHGYDVIENWGQGTLVTVSS VL: DIQMTQSPSSLSASVGDRVTITCRASQSISSYLNWYQQKPGKAPKLLIYATSNLQIGVPSRFSGSGSGTDFTLTISSLQPEDFATYYCQQFRRLPWTFGQGTKLEIKR )
8.01
